The entries below are paired with their reported inhibition of growth at 50 µg/mL.
System: Botryosphaeria berengeriana
Experiment: Fungicidal activity against Botryosphaeria berengeriana assessed as growth inhibition at 50 ug/ml at 23 degC after 3 days
Format: functional
Settings: 72 h, read-out: GI
Readout Kind: inhibition of growth at 50 µg/mL

Cc1cccc(Oc2c(/C=N/OCc3cnc(Cl)s3)c(C(F)(F)F)nn2C)c1 ... 45.3%
Cc1ccccc1Oc1c(/C=N/OCc2cnc(Cl)s2)c(C(F)(F)F)nn1C ... 35%
COc1ccc(Oc2c(/C=N/OCc3cnc(Cl)s3)c(C(F)(F)F)nn2C)cc1 ... 46.5%
Cn1nc(C(F)(F)F)c(/C=N/OCc2cnc(Cl)s2)c1Sc1ccc(Cl)cc1 ... 42.4%
Cn1nc(C(F)(F)F)c(/C=N/OCc2cnc(Cl)s2)c1Oc1ccccc1 ... 30.3%
Cc1nn(C)c(Oc2ccccc2)c1/C=N/OCc1ccc(C(=O)OC(C)(C)C)cc1 [FENPYROXYMATE] ... 6.7%
Cn1nc(C(F)(F)F)c(/C=N/OCc2cnc(Cl)s2)c1Oc1ccccc1Cl ... 23.6%
Cn1nc(C(F)(F)F)c(/C=N/OCc2cnc(Cl)s2)c1Oc1ccc(Cl)cc1 ... 32.1%
CC(C)(C)C(=O)C(Oc1ccc(Cl)cc1)n1cncn1 (stereo not given) ... 86.7%
Cn1nc(C(F)(F)F)c(/C=N/OCc2cnc(Cl)s2)c1Oc1ccc(F)cc1 ... 24.2%

----------
System: Botryosphaeria berengeriana
Assay: Fungicidal activity against Botryosphaeria berengeriana assessed as growth inhibition at 50 ug/ml at 23 degC after 3 days
Assay type: functional
Settings: 72 h, read-out: GI
This listing pairs compounds with measured inhibition of growth at 50 µg/mL.
Readout Kind: inhibition of growth at 50 µg/mL (%)

Cc1ccc(Oc2c(/C=N/OCc3cnc(Cl)s3)c(C(F)(F)F)nn2C)cc1 ... 21
Cc1ccc(Oc2c(/C=N/OCc3cnc(Cl)s3)c(C(F)(F)F)nn2C)cc1C ... 26.2
Cn1nc(C(F)(F)F)c(/C=N/OCc2cnc(Cl)s2)c1Oc1ccc(C(C)(C)C)cc1 ... 22.1
Cn1nc(C(F)(F)F)c(/C=N/OCc2cnc(Cl)s2)c1Sc1ccccc1 ... 29.5
Cn1nc(C(F)(F)F)c(/C=N/OCc2cnc(Cl)s2)c1Oc1cccc(Cl)c1 ... 21.7
Cn1nc(C(F)(F)F)c(/C=N/OCc2cnc(Cl)s2)c1Oc1ccc(Br)cc1 ... 32.9
Cc1ccc(Cl)c(Oc2c(/C=N/OCc3cnc(Cl)s3)c(C(F)(F)F)nn2C)c1 ... 29.8

----------
Tested on: Aphis medicaginis
Experiment: Insecticidal activity against Aphis medicaginis in soybean tender shoots assessed as mortality at 0.5 mg/ml treated for 5 secs measured after 48 hr
Format: functional
Readout Kind: mortality at 500 µg/mL

Cc1ccccc1Oc1c(/C=N/OCc2cnc(Cl)s2)c(C(F)(F)F)nn1C ... 90.4%
Cn1nc(C(F)(F)F)c(/C=N/OCc2cnc(Cl)s2)c1Oc1ccccc1 ... 41.4%
Cc1nn(C)c(Oc2ccccc2)c1/C=N/OCc1ccc(C(=O)OC(C)(C)C)cc1 [FENPYROXYMATE] ... 18.4%
Cn1nc(C(F)(F)F)c(/C=N/OCc2cnc(Cl)s2)c1Sc1ccccc1 ... 92.2%
Cn1nc(C(F)(F)F)c(/C=N/OCc2cnc(Cl)s2)c1Oc1ccc(C(C)(C)C)cc1 ... 89.4%
O=[N+]([O-])/N=C1\NCCN1Cc1ccc(Cl)nc1 [IMIDACLOPRID] ... 94.7%
Cn1nc(C(F)(F)F)c(/C=N/OCc2cnc(Cl)s2)c1Oc1cccc(Cl)c1 ... 70.4%
Cc1ccc(Oc2c(/C=N/OCc3cnc(Cl)s3)c(C(F)(F)F)nn2C)cc1 ... 95.3%
Cn1nc(C(F)(F)F)c(/C=N/OCc2cnc(Cl)s2)c1Oc1ccc(Br)cc1 ... 90.4%
Cc1ccc(Cl)c(Oc2c(/C=N/OCc3cnc(Cl)s3)c(C(F)(F)F)nn2C)c1 ... 83.4%
Cn1nc(C(F)(F)F)c(/C=N/OCc2cnc(Cl)s2)c1Oc1ccccc1Cl ... 59.3%
Cn1nc(C(F)(F)F)c(/C=N/OCc2cnc(Cl)s2)c1Oc1ccc(Cl)cc1 ... 92.3%
Cn1nc(C(F)(F)F)c(/C=N/OCc2cnc(Cl)s2)c1Sc1ccc(Cl)cc1 ... 91.4%
Cc1ccc(Oc2c(/C=N/OCc3cnc(Cl)s3)c(C(F)(F)F)nn2C)cc1C ... 71.2%
Cn1nc(C(F)(F)F)c(/C=N/OCc2cnc(Cl)s2)c1Oc1ccc(Cl)cc1Cl ... 97.4%
Cc1cccc(Oc2c(/C=N/OCc3cnc(Cl)s3)c(C(F)(F)F)nn2C)c1 ... 93.1%
COc1ccc(Oc2c(/C=N/OCc3cnc(Cl)s3)c(C(F)(F)F)nn2C)cc1 ... 92.2%
Cn1nc(C(F)(F)F)c(/C=N/OCc2cnc(Cl)s2)c1Oc1ccc(F)cc1 ... 90.2%
